Biological target: UniProt:P10632
Sequence (P10632 1-490): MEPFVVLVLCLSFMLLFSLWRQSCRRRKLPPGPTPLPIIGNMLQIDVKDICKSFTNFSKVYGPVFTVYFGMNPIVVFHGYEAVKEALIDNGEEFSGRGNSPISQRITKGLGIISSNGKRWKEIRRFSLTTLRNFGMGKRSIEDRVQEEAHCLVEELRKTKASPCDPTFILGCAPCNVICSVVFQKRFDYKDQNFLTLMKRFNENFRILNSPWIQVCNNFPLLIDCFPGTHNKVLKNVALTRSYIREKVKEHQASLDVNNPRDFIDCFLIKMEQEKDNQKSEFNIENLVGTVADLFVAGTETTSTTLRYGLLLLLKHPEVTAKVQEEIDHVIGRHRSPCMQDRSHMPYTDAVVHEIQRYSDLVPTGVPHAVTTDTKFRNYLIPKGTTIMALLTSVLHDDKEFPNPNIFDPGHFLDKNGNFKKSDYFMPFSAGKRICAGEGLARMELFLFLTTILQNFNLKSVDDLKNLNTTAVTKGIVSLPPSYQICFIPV
Experiment: Eurofins CYP450 inhibition, dibenzyl fluorescein substrate
Type: in vitro ADME
Conditions: recombinant CYP2C8, probe dibenzyl fluorescein, 10 μM 2AP
observable: inhibition at 10 µM

Task item: Reported inhibition at 10 µM, compound CC(=O)c1ccccn1 [2AP, 2-acetyl pyridine] : ____
Reply: 0%

---

Target: CYP2D6 (Homo sapiens)
Sequence (P10635 whole entry): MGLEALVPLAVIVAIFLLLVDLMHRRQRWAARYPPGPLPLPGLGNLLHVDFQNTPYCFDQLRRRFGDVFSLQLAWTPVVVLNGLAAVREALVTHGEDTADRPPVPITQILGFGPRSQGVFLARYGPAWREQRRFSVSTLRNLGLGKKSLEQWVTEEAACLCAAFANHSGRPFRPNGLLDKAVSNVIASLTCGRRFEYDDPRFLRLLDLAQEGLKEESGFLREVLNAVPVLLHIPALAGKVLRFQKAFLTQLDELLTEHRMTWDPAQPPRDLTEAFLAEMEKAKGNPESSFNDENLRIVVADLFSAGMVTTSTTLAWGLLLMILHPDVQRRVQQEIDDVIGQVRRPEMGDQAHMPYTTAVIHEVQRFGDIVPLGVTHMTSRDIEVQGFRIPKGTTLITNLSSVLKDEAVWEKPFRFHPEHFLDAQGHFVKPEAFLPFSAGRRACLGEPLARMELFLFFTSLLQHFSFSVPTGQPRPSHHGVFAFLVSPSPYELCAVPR
Experiment: Eurofins CYP450 inhibition, 3-Cyano-7-ethoxycoumarin substrate
Type: in vitro ADME
Settings: recombinant CYP2D6, probe 3-cyano-7-ethoxycoumarin, 10 μM 2AP
observable: inhibition at 10 µM (%)
Express the result in % but write the number alone.

Task item: Reported inhibition at 10 µM, compound `CC(=O)c1ccccn1` : ____
Reply: 2

---

Target: CYP2C19 (Homo sapiens)
Sequence (P33261 whole entry): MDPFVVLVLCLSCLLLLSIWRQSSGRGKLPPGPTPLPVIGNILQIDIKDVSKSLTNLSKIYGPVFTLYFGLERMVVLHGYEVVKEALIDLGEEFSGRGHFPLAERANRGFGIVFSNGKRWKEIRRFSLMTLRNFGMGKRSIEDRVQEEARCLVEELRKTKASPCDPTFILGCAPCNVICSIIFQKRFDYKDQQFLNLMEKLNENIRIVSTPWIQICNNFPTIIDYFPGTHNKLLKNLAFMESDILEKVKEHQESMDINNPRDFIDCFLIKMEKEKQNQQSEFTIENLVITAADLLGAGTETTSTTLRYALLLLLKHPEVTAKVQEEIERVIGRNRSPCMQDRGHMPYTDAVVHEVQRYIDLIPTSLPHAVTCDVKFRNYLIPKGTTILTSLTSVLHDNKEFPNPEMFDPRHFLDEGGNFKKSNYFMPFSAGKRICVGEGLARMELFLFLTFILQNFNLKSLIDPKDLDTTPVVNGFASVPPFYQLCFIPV
Assay: Eurofins CYP450 inhibition, 3-Cyano-7-ethoxycoumarin substrate
Type: in vitro ADME
Details: recombinant CYP2C19, probe 3-cyano-7-ethoxycoumarin, 10 μM 2AP
observable: inhibition at 10 µM (%)
Express the result in % but write the number alone.

Task item: Reported inhibition at 10 µM, compound `CC(=O)c1ccccn1` : ____
Reply: 3

---

Molecular target: hERG potassium channel (Homo sapiens, UniProt Q12809)
Sequence (Q12809 whole entry): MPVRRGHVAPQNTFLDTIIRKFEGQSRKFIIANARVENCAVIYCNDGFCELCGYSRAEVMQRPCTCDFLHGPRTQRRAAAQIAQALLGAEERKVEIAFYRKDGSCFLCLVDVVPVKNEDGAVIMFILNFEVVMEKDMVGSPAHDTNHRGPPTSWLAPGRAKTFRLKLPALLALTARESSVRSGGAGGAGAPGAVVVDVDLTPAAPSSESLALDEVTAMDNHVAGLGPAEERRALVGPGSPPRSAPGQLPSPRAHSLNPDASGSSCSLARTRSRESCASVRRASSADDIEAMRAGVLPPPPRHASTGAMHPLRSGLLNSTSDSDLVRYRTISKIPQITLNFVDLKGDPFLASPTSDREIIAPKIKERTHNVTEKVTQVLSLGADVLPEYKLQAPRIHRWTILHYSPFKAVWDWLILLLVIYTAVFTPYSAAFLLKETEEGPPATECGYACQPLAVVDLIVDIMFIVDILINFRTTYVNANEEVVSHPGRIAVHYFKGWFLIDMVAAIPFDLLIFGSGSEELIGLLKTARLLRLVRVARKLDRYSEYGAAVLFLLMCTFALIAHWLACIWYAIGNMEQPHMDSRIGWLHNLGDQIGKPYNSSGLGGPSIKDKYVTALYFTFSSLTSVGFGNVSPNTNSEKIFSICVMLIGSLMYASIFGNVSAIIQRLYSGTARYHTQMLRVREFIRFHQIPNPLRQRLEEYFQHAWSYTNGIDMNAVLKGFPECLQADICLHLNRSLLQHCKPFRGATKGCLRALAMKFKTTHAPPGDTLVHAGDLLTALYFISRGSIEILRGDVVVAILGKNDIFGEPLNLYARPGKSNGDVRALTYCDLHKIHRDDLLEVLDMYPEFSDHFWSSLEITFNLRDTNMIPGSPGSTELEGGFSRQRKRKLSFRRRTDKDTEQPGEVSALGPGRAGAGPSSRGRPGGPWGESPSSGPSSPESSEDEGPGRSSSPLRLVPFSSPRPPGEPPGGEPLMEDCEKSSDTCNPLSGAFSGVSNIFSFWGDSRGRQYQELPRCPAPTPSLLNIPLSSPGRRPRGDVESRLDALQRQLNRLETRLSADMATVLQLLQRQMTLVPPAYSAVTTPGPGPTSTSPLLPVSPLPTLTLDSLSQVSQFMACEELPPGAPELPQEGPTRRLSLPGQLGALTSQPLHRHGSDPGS
Assay: Eurofins radioligand receptor binding inhibition
Settings: 10 μM 2AP
observable: inhibition at 10 µM
In your response, put the unit directly after the numeric value.

Task item: // map CC(=O)c1ccccn1 [2AP, 2-acetyl pyridine] to recorded inhibition at 10 µM (system: hERG potassium channel (Homo sapiens, UniProt Q12809))
Reply: 4%

All values here come from paper PMC11581222.
